- method description: Protein binding in human plasma by dialysis method
recorded endpoint: PPB (%)
Just the number please, in %, no unit attached.

[[record]]
molecule = "CCOc1ccc2cc(-c3nn(C(C)(C)CO)c(N)c3C(N)=O)ccc2n1"
unit_tag = "%"
obs_value = 84

[[record]]
molecule = "CCOc1ccc2cc(-c3nn(CC4CC4)c(N)c3C(N)=O)ccc2c1"
unit_tag = "%"
obs_value = 95


Query: Write down PPB measured for item CC(C)(C)n1nc(-c2ccc3cc(OC4CC4)ccc3c2)c(C(N)=O)c1N
Response: 82

Query: Answer with reported PPB of CCOc1ccc2cc(-c3nn(C(C)CCO)c(N)c3C(N)=O)cnc2c1 (stereo not drawn)
Response: 84

Query: Determine from records and report PPB for CCOc1ccc2cc(-c3nn(C(C)(C)CCO)c(N)c3C(N)=O)ccc2c1
Response: 99

Query: Provide one value: measured PPB of CCOc1ccc2cc(-c3nn(C(C)CCO)c(N)c3C(N)=O)ccc2c1 (stereo not drawn)
Response: 88

Query: In one line, give reported PPB of the entry CCOc1ccc2cc(-c3nn(CC(C)(C)CO)c(N)c3C(N)=O)ccc2c1 .
Response: 94

Query: Fill in PPB for record CC(CCO)n1nc(-c2ccc3cc(OC4CC4)ccc3c2)c(C(N)=O)c1N (stereo not drawn)
Response: 95

----------
Form field: CL/F (one value per entry).
- method description: Clearance in mouse at 10 mg/kg, po
- Assay type: ADME, organism-based
- setup conditions: in vivo
The response must be a number in mL/min with no trailing unit.

[[record]]
compound = "CCOc1ccc2cc(-c3nn(C(C)CCO)c(N)c3C(N)=O)cnc2c1 (stereo not drawn)"
obs_value = 1.9

[[record]]
compound = "CCOc1ccc2cc(-c3nn(CC(C)(C)CO)c(N)c3C(N)=O)ccc2n1"
obs_value = 5.1


Query: State its CL/F: CC(C)(C)n1nc(-c2ccc3cc(OC4CC4)ccc3c2)c(C(N)=O)c1N
Response: 0.5

----------
- method description: Protein binding in mouse plasma by dialysis method
Criterion: PPB strictly less than 90%. Met: True. Not met: False.

[[record]]
compound = "CC(C)(CO)n1nc(-c2ccc3cc(OC4CC4)ccc3c2)c(C(N)=O)c1N"
label_class = "True"


Query: Check if PPB falls below 90% for CCOc1ccc2cc(-c3nn(C(C)CCO)c(N)c3C(N)=O)cnc2c1 (centres undefined) .
Response: True

Query: Is PPB strictly under 90% for the entry CC(C)(C)n1nc(-c2ccc3cc(OC4CC4)ccc3c2)c(C(N)=O)c1N ?
Response: False

Query: Lab note: confirm whether the reported PPB for this compound is below 90%, equality not counting. compound: CCOc1ccc2cc(-c3nn(CC4CC4)c(N)c3C(N)=O)ccc2c1
Response: False

----------
- System: HepG2
- method description: Toxicity in human HepG2 cells
- Type: cell-based
recorded endpoint: Activity

// known answers, use as guide
[[record]]
compound = "CC(C)(CO)Cn1nc(-c2cnc3cc(OC4CC4)ccc3c2)c(C(N)=O)c1N"
target_or_test_system = "HepG2"
obs_value = "Non-Toxic"

[[record]]
compound = "CCOc1ccc2cc(-c3nn(C(C)(C)CCO)c(N)c3C(N)=O)cnc2c1"
target_or_test_system = "HepG2"
obs_value = "Non-Toxic"

[[record]]
compound = "CCOc1ccc2cc(-c3nn(C(C)(C)CO)c(N)c3C(N)=O)ccc2n1"
target_or_test_system = "HepG2"
obs_value = "Non-Toxic"

[[record]]
compound = "CC(C)(CCO)n1nc(-c2ccc3nc(OC4CC4)ccc3c2)c(C(N)=O)c1N"
target_or_test_system = "HepG2"
obs_value = "Non-Toxic"

[[record]]
compound = "CCOc1ccc2cc(-c3nn(C(C)(C)CO)c(N)c3C(N)=O)ccc2c1"
target_or_test_system = "HepG2"
obs_value = "Non-Toxic"


--- query ---
Query: Return reported Activity for target or system HepG2, item CC(CCO)n1nc(-c2ccc3nc(OC4CC4)ccc3c2)c(C(N)=O)c1N (stereo unspecified) .
Response: Non-Toxic

----------
- Tested on: HepG2
- method description: Toxicity in human HepG2 cells
- Format: cell-based
recorded endpoint: Activity

Take a look at these entries with their results.
[[record]]
compound = "CC(C)(CO)n1nc(-c2cnc3cc(OC4CC4)ccc3c2)c(C(N)=O)c1N"
obs_value = "Non-Toxic"

[[record]]
compound = "C#CCOc1ccc2cc(-c3nn(C(C)(C)C)c(N)c3C(N)=O)ccc2c1"
obs_value = "Non-Toxic"

[[record]]
compound = "CCOc1ccc2cc(-c3nn(C(C)(C)CO)c(N)c3C(N)=O)cnc2c1"
obs_value = "Non-Toxic"

[[record]]
compound = "CC(CCO)n1nc(-c2ccc3cc(OC4CC4)ccc3c2)c(C(N)=O)c1N (stereo unspecified)"
obs_value = "Non-Toxic"

[[record]]
compound = "CC(CCO)n1nc(-c2cnc3cc(OC4CC4)ccc3c2)c(C(N)=O)c1N (stereo unspecified)"
obs_value = "Non-Toxic"


Query: Note Activity for the compound shown: CCOc1ccc2cc(-c3nn(C(C)CCO)c(N)c3C(N)=O)ccc2n1 (stereo unspecified)
Response: Non-Toxic

----------
Documented Cmax across a set of molecules
- method description: in vivo
- setup conditions: mouse, po, 25 mg/kg
Write down the numeric answer in µM and omit the unit.

[[record]]
molecule = "CC(CCO)n1nc(-c2cnc3cc(OC4CC4)ccc3c2)c(C(N)=O)c1N (configuration not stated)"
recorded_endpoint = "Cmax"
obs_value = 69.2


Consider the additional molecule presented here.
Query: Using known records, supply Cmax for CC(CCO)n1nc(-c2ccc3nc(OC4CC4)ccc3c2)c(C(N)=O)c1N (configuration not stated)
Response: 8.5

----------
This section presents molecules with their documented log10 AUC values.
- method description: AUC in mouse at 25 mg/kg, po
- Format: ADME, organism-based
- Design: dose 25 mg/kg
- setup conditions: in vivo
Form field - Quantity: AUC; Unit: µmol·min/L; Scale: log10

Answered examples (4):
[[record]]
molecule = "CCOc1ccc2cc(-c3nn(C(C)(C)CO)c(N)c3C(N)=O)cnc2c1"
obs_value = 4.71

[[record]]
molecule = "CC(CCO)n1nc(-c2ccc3cc(OC4CC4)ccc3c2)c(C(N)=O)c1N (stereo not given)"
obs_value = 3.64

[[record]]
molecule = "CCOc1ccc2cc(-c3nn(C(C)(C)CCO)c(N)c3C(N)=O)ccc2c1"
obs_value = 2.16

[[record]]
molecule = "CCOc1ccc2cc(-c3nn(C(C)(C)CO)c(N)c3C(N)=O)ccc2c1"
obs_value = 3.97


Query: Indicate its recorded log10 AUC; the molecule in question is CC(C)(CCO)n1nc(-c2ccc3nc(OC4CC4)ccc3c2)c(C(N)=O)c1N
Response: 2.29

----------
- method description: Protein binding in mouse plasma by dialysis method
recorded endpoint: fraction unbound
Lab note: record just the number, no unit beside it.

Query: Return reported fraction unbound. Input compound: CC(CCO)n1nc(-c2ccc3nc(OC4CC4)ccc3c2)c(C(N)=O)c1N (stereo unspecified)
Response: 0.23

----------
- method description: Plasma concentration in mouse at 250 mg/kg, po QD for 7 days measured after 48 hrs by LC-MS/MS analysis
recorded endpoint: concentration at 168 h (µM)
Return type: number; implicit unit µM.

Query: Check the records and state concentration at 168 h for CC(C)(C)n1nc(-c2ccc3cc(OC4CC4)ccc3c2)c(C(N)=O)c1N
Response: 2.3

----------
- method description: Plasma concentration in mouse at 250 mg/kg, po QD for 3 days measured on pre dose by LC-MS/MS analysis
recorded endpoint: concentration at 72 h (µM)
Express the result in µM but write the number alone.

Query: Return reported concentration at 72 h. Input compound: CC(C)(C)n1nc(-c2ccc3cc(OC4CC4)ccc3c2)c(C(N)=O)c1N
Response: 36.1

----------
- method description: Plasma concentration in mouse at 100 mg/kg, po QD for 7 days measured after 24 hrs by LC-MS/MS analysis
- Assay type: ADME, organism-based
- setup conditions: time 7 day
recorded endpoint: concentration at 168 h

Query: // fetch concentration at 168 h given entry CC(C)(C)n1nc(-c2ccc3cc(OC4CC4)ccc3c2)c(C(N)=O)c1N
Response: 26.4 µM

----------
- method description: Solubility in pH 6.5 solution
- setup conditions: buffer
recorded endpoint: solubility

Query: Specify solubility for CC(C)(C)n1nc(-c2ccc3cc(OC4CC4)ccc3c2)c(C(N)=O)c1N and stop.
Response: 65 µM

Query: Tell me solubility reported for CCOc1ccc2cc(-c3nn(CC(C)(C)CO)c(N)c3C(N)=O)cnc2c1
Response: > 100 µM

Query: Supply reported solubility belonging to this molecule: CCOc1ccc2cc(-c3nn(C(C)(C)CO)c(N)c3C(N)=O)ccc2n1
Response: > 100 µM

Query: Return value of solubility for input CCOc1ccc2cc(-c3nn(C(C)(C)CO)c(N)c3C(N)=O)cnc2c1 , no commentary.
Response: > 50 µM
